assay: In vivo pharmacokinetics, IP injection or oral gavage, 10 mg/kg; set-up: species or system mouse; details: male, mouse, brain/plasma, ip, read-out: Brain/plasma ratio at 3 h
measure-name: Kp at 3 h
Lab note: write the figure by itself, no unit.

# Kp at 3 h (compound: OCCN1CCN(Cc2ccc(-c3cnc4[nH]cc(-c5cccc(Cl)c5)c4c3)cc2)CC1 [Compound 12k] ) is 3.91

Consider now this further compound.
# Kp at 3 h (compound: CN1CCN(Cc2ccc(-c3cnc4[nH]cc(-c5ccc6[nH]ccc6c5)c4c3)cc2)CC1 [Compound 1, reference compound] ) is 0.25

----------
Below is a list of entries, each paired with its recorded remaining activity at 0.1 µM value.
target: panel of 60 human kinases (Homo sapiens); construct: purchased Reaction Biology Corp; experiment: Radiolabeled ATP kinase assay, panel of 60 kinases (Table S5); type: biochemical; conditions: CDK3/cyclin E; 0.1 μM; 10 μM ATP; read-out: % Enzyme Activity (relative to DSMO controls)
Write down the numeric answer in % and omit the unit.

# remaining activity at 0.1 µM (molecule: CN1CCN(Cc2ccc(-c3cnc4[nH]cc(-c5cnn(Cc6ccccc6)c5)c4c3)cc2)CC1 ) is 65.2

Further cases:
# remaining activity at 0.1 µM (molecule: COc1ccccc1-c1c[nH]c2ncc(-c3ccc(CN4CCN(C)CC4)cc3)cc12 ) is 72.7

# remaining activity at 0.1 µM (molecule: CN1CCN(Cc2ccc(-c3cnc4[nH]cc(-c5ccncc5)c4c3)cc2)CC1 ) is 72.3

# remaining activity at 0.1 µM (molecule: CN1CCN(Cc2ccc(-c3cnc4[nH]cc(-c5ccccc5Cl)c4c3)cc2)CC1 ) is 85.5

# remaining activity at 0.1 µM (molecule: CN1CCN(Cc2ccc(-c3cnc4[nH]cc(-c5ccoc5)c4c3)cc2)CC1 ) is 93.7

----------
biological target: panel of 60 human kinases (Homo sapiens, UniProt Q92918); construct: purchased Reaction Biology Corp; assay: Radiolabeled ATP kinase assay, panel of 60 kinases (Table S5); type: biochemical; details: HPK1/MAP4K1; 0.1 μM; 10 μM ATP; read-out: % Enzyme Activity (relative to DSMO controls)
Sequence (Q92918 whole entry): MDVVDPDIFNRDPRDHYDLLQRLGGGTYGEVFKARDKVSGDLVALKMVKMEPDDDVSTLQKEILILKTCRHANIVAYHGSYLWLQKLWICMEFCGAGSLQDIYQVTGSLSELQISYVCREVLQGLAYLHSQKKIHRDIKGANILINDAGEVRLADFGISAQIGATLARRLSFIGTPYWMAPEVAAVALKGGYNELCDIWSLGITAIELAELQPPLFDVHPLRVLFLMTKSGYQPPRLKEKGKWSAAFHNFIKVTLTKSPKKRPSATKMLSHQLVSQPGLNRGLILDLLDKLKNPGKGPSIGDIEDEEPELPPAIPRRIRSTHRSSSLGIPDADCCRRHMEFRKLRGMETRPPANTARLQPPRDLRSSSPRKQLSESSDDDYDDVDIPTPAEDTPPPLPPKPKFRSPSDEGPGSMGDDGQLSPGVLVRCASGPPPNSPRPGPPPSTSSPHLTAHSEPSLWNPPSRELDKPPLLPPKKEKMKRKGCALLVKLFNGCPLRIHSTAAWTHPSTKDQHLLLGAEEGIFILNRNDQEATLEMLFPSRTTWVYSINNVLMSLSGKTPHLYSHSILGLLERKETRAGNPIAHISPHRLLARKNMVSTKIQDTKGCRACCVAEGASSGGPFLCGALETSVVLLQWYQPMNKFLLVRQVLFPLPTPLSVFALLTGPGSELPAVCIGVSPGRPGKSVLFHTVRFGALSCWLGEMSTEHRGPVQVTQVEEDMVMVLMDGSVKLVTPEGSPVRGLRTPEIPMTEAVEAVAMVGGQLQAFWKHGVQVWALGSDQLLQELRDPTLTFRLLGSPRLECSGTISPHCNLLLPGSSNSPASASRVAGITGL
measure-name: remaining activity at 0.1 µM

Take a look at these entries with their results.
# remaining activity at 0.1 µM (molecule: CN1CCN(Cc2ccc(-c3cnc4[nH]cc(-c5cnn(Cc6ccccc6)c5)c4c3)cc2)CC1 ) is 17.8%

# remaining activity at 0.1 µM (molecule: CN1CCN(Cc2ccc(-c3cnc4[nH]cc(-c5ccc6[nH]ccc6c5)c4c3)cc2)CC1 [Compound 1, reference compound] ) is 24%

Further cases:
# remaining activity at 0.1 µM (molecule: CN1CCN(Cc2ccc(-c3cnc4[nH]cc(-c5ccoc5)c4c3)cc2)CC1 ) is 62.4%

# remaining activity at 0.1 µM (molecule: CN1CCN(Cc2ccc(-c3cnc4[nH]cc(-c5ccccc5Cl)c4c3)cc2)CC1 ) is 19.5%

# remaining activity at 0.1 µM (molecule: CN1CCN(Cc2ccc(-c3cnc4[nH]cc(-c5cccc(Cl)c5)c4c3)cc2)CC1 ) is 62.5%

----------
target: panel of 60 human kinases (Homo sapiens); construct: purchased Reaction Biology Corp; assay: Radiolabeled ATP kinase assay, panel of 60 kinases (Table S5); assay type: biochemical; conditions: DYRK2; 0.1 μM; 10 μM ATP; read-out: % Enzyme Activity (relative to DSMO controls)
Could you mark each record t if its remaining activity at 0.1 µM falls strictly under 70%, and f if it equals or exceeds it?

QUERY: Please let me know if CN1CCN(Cc2ccc(-c3cnc4[nH]cc(-c5ccc6[nH]ccc6c5)c4c3)cc2)CC1 [Compound 1, reference compound] shows remaining activity at 0.1 µM below 70%.
RESULT: t

Further cases:
QUERY: Please let me know if CN1CCN(Cc2ccc(-c3cnc4[nH]cc(-c5ccc6c(c5)OCCO6)c4c3)cc2)CC1 [Compound 7d] shows remaining activity at 0.1 µM below 70%.
RESULT: t

QUERY: Please let me know if Cc1nn(C)c(C)c1-c1c[nH]c2ncc(-c3ccc(CN4CCN(C)CC4)cc3)cc12 [Compound 7ai] shows remaining activity at 0.1 µM below 70%.
RESULT: t

QUERY: Please let me know if CN1CCN(Cc2ccc(-c3cnc4[nH]cc(-c5ccoc5)c4c3)cc2)CC1 [Compound 7w] shows remaining activity at 0.1 µM below 70%.
RESULT: f

QUERY: Please let me know if CN1CCN(Cc2ccc(-c3cnc4[nH]cc(-c5ccccc5Cl)c4c3)cc2)CC1 [Compound 7as] shows remaining activity at 0.1 µM below 70%.
RESULT: t

----------
target: HGK/MAP4K4 (Homo sapiens); test: Radiolabeled ATP kinase assay (Reaction Biology Corp.), HGK; format: biochemical; design: purchased Reaction Biology Corp; details: [Cmpd] 0.1 μM; 10 μM ATP; read-out: % Enzyme Activity (relative to DMSO controls), HGK/MAP4K4, Data 1
Sequence (O95819 whole entry): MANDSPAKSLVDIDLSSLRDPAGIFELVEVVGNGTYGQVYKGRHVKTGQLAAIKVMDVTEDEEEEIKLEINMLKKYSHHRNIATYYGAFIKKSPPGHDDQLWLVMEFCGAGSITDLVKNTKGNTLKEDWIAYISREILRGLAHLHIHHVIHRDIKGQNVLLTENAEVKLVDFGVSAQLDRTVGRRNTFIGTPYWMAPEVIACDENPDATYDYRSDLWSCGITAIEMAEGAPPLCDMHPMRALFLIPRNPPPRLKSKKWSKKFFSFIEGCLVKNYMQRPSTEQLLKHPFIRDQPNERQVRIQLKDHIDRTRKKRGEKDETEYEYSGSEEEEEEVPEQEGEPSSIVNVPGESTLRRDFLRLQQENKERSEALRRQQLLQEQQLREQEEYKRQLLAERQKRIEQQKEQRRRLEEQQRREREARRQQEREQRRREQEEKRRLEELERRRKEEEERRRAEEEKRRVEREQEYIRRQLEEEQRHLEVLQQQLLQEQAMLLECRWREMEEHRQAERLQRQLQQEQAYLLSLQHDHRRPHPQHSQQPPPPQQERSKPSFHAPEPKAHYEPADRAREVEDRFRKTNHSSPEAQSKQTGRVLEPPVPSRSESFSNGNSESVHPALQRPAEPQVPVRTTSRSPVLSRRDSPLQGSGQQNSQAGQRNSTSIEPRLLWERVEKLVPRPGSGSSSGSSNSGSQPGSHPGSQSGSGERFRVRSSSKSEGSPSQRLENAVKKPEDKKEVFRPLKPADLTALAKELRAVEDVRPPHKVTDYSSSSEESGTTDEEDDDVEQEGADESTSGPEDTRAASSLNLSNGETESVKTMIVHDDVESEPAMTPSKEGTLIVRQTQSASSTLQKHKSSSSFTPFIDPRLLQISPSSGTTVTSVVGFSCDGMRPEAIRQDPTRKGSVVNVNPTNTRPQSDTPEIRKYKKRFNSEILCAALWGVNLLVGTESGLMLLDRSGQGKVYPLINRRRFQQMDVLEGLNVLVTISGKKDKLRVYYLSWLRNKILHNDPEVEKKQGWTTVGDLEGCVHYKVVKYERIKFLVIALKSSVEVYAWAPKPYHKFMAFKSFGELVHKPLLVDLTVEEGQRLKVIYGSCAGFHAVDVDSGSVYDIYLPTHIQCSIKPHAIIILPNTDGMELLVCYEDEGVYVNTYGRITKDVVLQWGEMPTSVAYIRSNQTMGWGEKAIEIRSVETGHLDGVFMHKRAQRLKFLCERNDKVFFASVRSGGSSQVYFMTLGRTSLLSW
measure-name: remaining activity at 0.1 µM (%)
Write down the numeric answer in % and omit the unit.

Take a look at these entries with their results.
# remaining activity at 0.1 µM (compound: CN1CCN(Cc2ccc(-c3cnc4[nH]cc(-c5ccc6[nH]ncc6c5)c4c3)cc2)CC1 [Compound 7v] ) is 2.9

# remaining activity at 0.1 µM (compound: CN1CCN(Cc2ccc(-c3cnc4[nH]cc(-c5ccc(OC(F)(F)F)cc5)c4c3)cc2)CC1 [Compound 7z] ) is 67.9

Further cases:
# remaining activity at 0.1 µM (compound: CN1CCN(Cc2ccc(-c3cnc4[nH]cc(-c5ccc(F)c(C(=O)NCc6ccco6)c5)c4c3)cc2)CC1 [Compound 7av] ) is 51.2

----------
target: panel of 60 human kinases (Homo sapiens, UniProt Q07002); construct: purchased Reaction Biology Corp; experiment: Radiolabeled ATP kinase assay, panel of 60 kinases (Table S5); type: biochemical; settings: CDK18/cyclin Y (PCTK3); 0.1 μM; 10 μM ATP; read-out: % Enzyme Activity (relative to DSMO controls)
Sequence (Q07002 whole entry): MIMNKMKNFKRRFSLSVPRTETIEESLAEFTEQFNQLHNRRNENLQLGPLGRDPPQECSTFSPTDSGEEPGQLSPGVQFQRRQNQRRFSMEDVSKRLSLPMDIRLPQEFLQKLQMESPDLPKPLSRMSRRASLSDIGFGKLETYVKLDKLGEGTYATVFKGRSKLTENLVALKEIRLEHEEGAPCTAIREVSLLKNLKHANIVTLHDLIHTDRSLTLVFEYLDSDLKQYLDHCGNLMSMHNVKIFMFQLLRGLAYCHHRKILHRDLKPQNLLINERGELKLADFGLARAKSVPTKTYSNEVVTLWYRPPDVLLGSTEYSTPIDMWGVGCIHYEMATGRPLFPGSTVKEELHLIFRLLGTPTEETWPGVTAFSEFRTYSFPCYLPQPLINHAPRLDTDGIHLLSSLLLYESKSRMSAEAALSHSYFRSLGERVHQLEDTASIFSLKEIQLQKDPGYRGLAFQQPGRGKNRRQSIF
Below is a list of entries, each paired with its recorded remaining activity at 0.1 µM value.
Hi, when you answer, please include the unit after the number. Thanks!

Take a look at these entries with their results.
# remaining activity at 0.1 µM (molecule: COc1ccccc1-c1c[nH]c2ncc(-c3ccc(CN4CCN(C)CC4)cc3)cc12 ) is 97.1%

# remaining activity at 0.1 µM (molecule: CN1CCN(Cc2ccc(-c3cnc4[nH]cc(-c5ccc6c(c5)OCCO6)c4c3)cc2)CC1 ) is 82.8%

# remaining activity at 0.1 µM (molecule: CN1CCN(Cc2ccc(-c3cnc4[nH]cc(-c5cnn(Cc6ccccc6)c5)c4c3)cc2)CC1 ) is 16.1%

# remaining activity at 0.1 µM (molecule: CN1CCN(Cc2ccc(-c3cnc4[nH]cc(-c5ccncc5)c4c3)cc2)CC1 ) is 24%

# remaining activity at 0.1 µM (molecule: CN1CCN(Cc2ccc(-c3cnc4[nH]cc(-c5cccc(Cl)c5)c4c3)cc2)CC1 ) is 112%

Consider now this further molecule.
# remaining activity at 0.1 µM (molecule: CN1CCN(Cc2ccc(-c3cnc4[nH]cc(-c5ccc6[nH]ccc6c5)c4c3)cc2)CC1 [Compound 1, reference compound] ) is 103%

----------
biological target: HGK/MAP4K4 (Homo sapiens); test: Radiolabeled ATP kinase assay (Reaction Biology Corp.), HGK; assay type: biochemical; set-up: purchased Reaction Biology Corp; conditions: [Cmpd] 0.025 μM; 10 μM ATP; read-out: % Enzyme Activity (relative to DMSO controls), HGK/MAP4K4, Data 1
Below is a list of entries, each paired with its recorded remaining activity at 0.025 µM value.
Hi, when you answer, please include the unit after the number. Thanks!

Take a look at these entries with their results.
# remaining activity at 0.025 µM (compound: CN1CCN(Cc2ccc(-c3cnc4[nH]cc(-c5ccc(CN6CCOCC6)s5)c4c3)cc2)CC1 ) is 74.3%

# remaining activity at 0.025 µM (compound: CN1CCN(Cc2ccc(-c3cnc4[nH]cc(-c5ccccc5Cl)c4c3)cc2)CC1 ) is 17.6%

# remaining activity at 0.025 µM (compound: CN1C2CCC1CN(Cc1ccc(-c3cnc4[nH]cc(-c5cccc6[nH]ncc56)c4c3)cc1)C2 [Compound 12d] ) is 3.17%

Consider now this further compound.
# remaining activity at 0.025 µM (compound: CN1CCN(Cc2ccc(-c3cnc4[nH]cc(-c5cccc(Cl)c5)c4c3)cc2)CC1 ) is 8.51%

----------
Below is a list of entries, each paired with its recorded remaining activity at 0.1 µM value.
target: panel of 60 human kinases (Homo sapiens); construct: purchased Reaction Biology Corp; test: Radiolabeled ATP kinase assay, panel of 60 kinases (Table S5); format: biochemical; conditions: CLK1; 0.1 μM; 10 μM ATP; read-out: % Enzyme Activity (relative to DSMO controls)
Write down the numeric answer in % and omit the unit.

Take a look at these entries with their results.
# remaining activity at 0.1 µM (compound: Cc1nn(C)c(C)c1-c1c[nH]c2ncc(-c3ccc(CN4CCN(C)CC4)cc3)cc12 [Compound 7ai] ) is 66.4

# remaining activity at 0.1 µM (compound: CN1CCN(Cc2ccc(-c3cnc4[nH]cc(-c5ccc6c(c5)OCCO6)c4c3)cc2)CC1 [Compound 7d] ) is 1.66

# remaining activity at 0.1 µM (compound: CN1CCN(Cc2ccc(-c3cnc4[nH]cc(-c5ccncc5)c4c3)cc2)CC1 [Compound 7n] ) is 34.9

Further cases:
# remaining activity at 0.1 µM (compound: CN1CCN(Cc2ccc(-c3cnc4[nH]cc(-c5ccoc5)c4c3)cc2)CC1 [Compound 7w] ) is 81.9

# remaining activity at 0.1 µM (compound: CN1CCN(Cc2ccc(-c3cnc4[nH]cc(-c5ccccc5Cl)c4c3)cc2)CC1 [Compound 7as] ) is 44.6

# remaining activity at 0.1 µM (compound: CN1CCN(Cc2ccc(-c3cnc4[nH]cc(-c5cccc(Cl)c5)c4c3)cc2)CC1 [Compound 7ad] ) is 81.2

# remaining activity at 0.1 µM (compound: COc1ccccc1-c1c[nH]c2ncc(-c3ccc(CN4CCN(C)CC4)cc3)cc12 [Compound 7at] ) is 78.4

# remaining activity at 0.1 µM (compound: CN1CCN(Cc2ccc(-c3cnc4[nH]cc(-c5ccc6[nH]ccc6c5)c4c3)cc2)CC1 [Compound 1, reference compound] ) is 33

# remaining activity at 0.1 µM (compound: CN1CCN(Cc2ccc(-c3cnc4[nH]cc(-c5cnn(Cc6ccccc6)c5)c4c3)cc2)CC1 [Compound 7ah] ) is 3.41

These entries and their values trace back to patent US12227500B2.
